Values were extracted from patent US11083725B2.

- System: NHBE cells
- assay details: Biolog metabolic array: substrate use by NHBE cells with or without CA09 infection
- Assay type: cell-based, human
- cond: Virus: CA09-infected NHBE cells, MOI 1; Biolog PMM2; 2 hr
Recorded 590 nm absorbance normalized to zero hour (substrate use), 2 hr, one value per entry.
Kindly provide the number alone.

| molecule | quantitative result |
| --- | --- |
| NCCO | 2.01 |
| CO[C@@H]1O[C@H](CO)[C@H](O)[C@H](O)[C@H]1O [b-Methyl-D-Galactoside] | 0.95 |
| OC[C@@H](O)[C@@H](O)[C@H](O)[C@H](O)CO | 0.27 |
| O=C(O)CC(O)(CC(=O)O)C(=O)O | 1.94 |
| C[C@@H](O)CC(=O)O [b-Hydroxy-Butyric Acid] | 2.31 |
| CC(=O)C(=O)O | 0.82 |

Any idea what its 590 nm absorbance normalized to zero hour (substrate use), 2 hr is? The molecule is CO[C@H]1O[C@H](CO)[C@H](O)[C@H](O)[C@H]1O [a-Methyl-D-Galactoside]
1.88

Any idea what its 590 nm absorbance normalized to zero hour (substrate use), 2 hr is? The molecule is OC[C@H]1O[C@H](O[C@H]2O[C@H](CO)[C@@H](O)[C@H](O)[C@H]2O)[C@H](O)[C@@H](O)[C@@H]1O
2.04

Any idea what its 590 nm absorbance normalized to zero hour (substrate use), 2 hr is? The molecule is O=C[C@H](O)[C@@H](O)[C@H](O)[C@H](O)CO [D-(+)-Glucose]
1.44
